# test: Tigecycline plasma PK and % F after PO enteric-coated capsule in dogs
# Type: in vivo, Beagle dogs
# measurement-conditions: female, beagle, dog, plasma, po, 30 mg, Tigecycline Plasma Concentration, 0.3 hr; PO 30 mg unformulated enteric-coated capsule, SC430; mean
measure-name: concentration at 0.3 hr (ng/mL)
Respond numerically; units are ng/mL and should not be typed.

Enquiry: # get_value(readout='concentration at 0.3 hr', item= CN(C)c1cc(NC(=O)CNC(C)(C)C)c(O)c2c1C[C@H]1C[C@H]3[C@H](N(C)C)C(O)=C(C(N)=O)C(=O)[C@@]3(O)C(O)=C1C2=O [Tigecycline] )
Return: 0

---

# test: Tigecycline plasma PK and % F after intraduodenal (ID) injection in anesthetized rats
# Assay type: in vivo, Sprague-Dawley Rats
# measurement-conditions: female, Sprague-Dawley, rat, plasma, other: intraduodenal bolus injection, 9 mg/kg, pH 3.5, ID, 400 mM CA (pH 3.5), 26 mM LLC, 9.0 mg/kg (RA853), parent Tigecycline peak only; 30 min
measure-name: concentration at 30 min
Please don't drop the unit; write it after the number.

Enquiry: GET /values?readout=concentration at 30 min&item= CN(C)c1cc(NC(=O)CNC(C)(C)C)c(O)c2c1C[C@H]1C[C@H]3[C@H](N(C)C)C(O)=C(C(N)=O)C(=O)[C@@]3(O)C(O)=C1C2=O
Return: 1760 ng/mL

---

# test: Kanamycin and tobramycin plasma PK after IV bolus in dogs
# Assay type: in vivo, Beagle dogs
# measurement-conditions: female, Beagle, dog, plasma, iv, 0.1 mg, single IV bolus 0.10 mg; 60 min; read-out: Plasma Concentration, individual dogs
measure-name: concentration at 60 min

Enquiry: Entry NC[C@H]1O[C@H](O[C@H]2[C@H](O)[C@@H](O[C@H]3O[C@H](CO)[C@@H](O)[C@H](N)[C@H]3O)[C@H](N)C[C@@H]2N)[C@H](O)[C@@H](O)[C@@H]1O : reported concentration at 60 min = ?
Return: 31 ng/mL

---

# test: Tigecycline plasma PK and % F after intraduodenal (ID) injection in anesthetized rats
# Assay type: in vivo, Sprague-Dawley Rats
# measurement-conditions: female, Sprague-Dawley, rat, plasma, other: intraduodenal bolus injection, 9 mg/kg, pH 3.5, ID, 400 mM CA (pH 3.5), 26 mM LLC, 9.0 mg/kg (RA853), parent Tigecycline peak only; 10 min
measure-name: concentration at 10 min
Quick note: unit goes after the number.

Enquiry: // lookup concentration at 10 min for CN(C)c1cc(NC(=O)CNC(C)(C)C)c(O)c2c1C[C@H]1C[C@H]3[C@H](N(C)C)C(O)=C(C(N)=O)C(=O)[C@@]3(O)C(O)=C1C2=O [Tigecycline]
Return: 2490 ng/mL

---

# test: Tigecycline plasma PK and % F after PO enteric-coated capsule in dogs
# Format: in vivo, Beagle dogs
# measurement-conditions: female, beagle, dog, plasma, po, 30 mg, target dose 30 mg, enterically coated capsule; excluding animal 5256; read-out: Observed Mean Cmax
measure-name: Cmax

Enquiry: Consider the compound CN(C)c1cc(NC(=O)CNC(C)(C)C)c(O)c2c1C[C@H]1C[C@H]3[C@H](N(C)C)C(O)=C(C(N)=O)C(=O)[C@@]3(O)C(O)=C1C2=O and give its measured Cmax.
Return: 121 ng/mL

---

# test: Tigecycline plasma PK after IV bolus in anesthetized rats
# Type: in vivo
# measurement-conditions: female, Sprague-Dawley, rat, IV bolus 12 mg/kg, PBS (RA853), 0 min
measure-name: concentration at 0 min

Enquiry: Given the compound CN(C)c1cc(NC(=O)CNC(C)(C)C)c(O)c2c1C[C@H]1C[C@H]3[C@H](N(C)C)C(O)=C(C(N)=O)C(=O)[C@@]3(O)C(O)=C1C2=O , what is its reported concentration at 0 min?
Return: 0 µg/mL

---

# test: Tigecycline plasma PK and % F after PO enteric-coated capsule in dogs
# Format: in vivo, Beagle dogs
# measurement-conditions: female, beagle, dog, plasma, po, 45 mg, Tigecycline Plasma Concentration, Time (min) 1.7; PO 45 mg enteric-coated capsule with 500 mg CA and 100 mg LLC, SC430; mean
measure-name: concentration at […] (ng/mL)
Response body: numeric value in ng/mL, unit text excluded.

Enquiry: Given the compound CN(C)c1cc(NC(=O)CNC(C)(C)C)c(O)c2c1C[C@H]1C[C@H]3[C@H](N(C)C)C(O)=C(C(N)=O)C(=O)[C@@]3(O)C(O)=C1C2=O , what is its reported concentration at […]?
Return: 101

---

# test: Tigecycline plasma PK and % F after PO enteric-coated capsule in dogs
# Assay type: in vivo, Beagle dogs
# measurement-conditions: female, beagle, dog, plasma, po, 15 mg, Tigecycline Plasma Concentration, 210 min; PO 15 mg unformulated enteric-coated capsule, SC424; individual dogs
measure-name: concentration at 210 min

Enquiry: Recorded concentration at 210 min for CN(C)c1cc(NC(=O)CNC(C)(C)C)c(O)c2c1C[C@H]1C[C@H]3[C@H](N(C)C)C(O)=C(C(N)=O)C(=O)[C@@]3(O)C(O)=C1C2=O , please?
Return: 0 ng/mL

---

# test: Tigecycline plasma PK and % F after intraduodenal (ID) injection in anesthetized rats
# Format: in vivo, Sprague-Dawley Rats
# measurement-conditions: female, Sprague-Dawley, rat, plasma, other: intraduodenal injection, 4.8 mg/kg, ID, PBS, 4.8 mg/kg (RA851); relative to 0.64 mg/kg IV; read-out: % F, Mean
measure-name: bioavailability

Enquiry: May I ask what bioavailability has been recorded for CN(C)c1cc(NC(=O)CNC(C)(C)C)c(O)c2c1C[C@H]1C[C@H]3[C@H](N(C)C)C(O)=C(C(N)=O)C(=O)[C@@]3(O)C(O)=C1C2=O ?
Return: 1.6%

---

# test: Tigecycline plasma PK and % F after PO enteric-coated capsule in dogs
# Format: in vivo, Beagle dogs
# measurement-conditions: female, beagle, dog, plasma, po, 15 mg, Study 1 (SC424); 15 mg Formulated enteric coated capsule (500 mg citric acid, 100 mg LLC), oral, dogs, N=8; mean (% CV); sampling 4 h; read-out: AUC(0-t)
measure-name: AUC(0-t)

Enquiry: State the recorded AUC(0-t) for this entry: CN(C)c1cc(NC(=O)CNC(C)(C)C)c(O)c2c1C[C@H]1C[C@H]3[C@H](N(C)C)C(O)=C(C(N)=O)C(=O)[C@@]3(O)C(O)=C1C2=O
Return: 133 ng·h/mL

---

# test: Tigecycline plasma PK and % F after PO enteric-coated capsule in dogs
# Assay type: in vivo, Beagle dogs
# measurement-conditions: female, beagle, dog, plasma, po, 45 mg, 45 mg Formulated (500 mg CA, 100 mg LLC) enteric coated capsule, Study 2 (SC430); mean (% CV); read-out: % F
measure-name: bioavailability (%)
Write it as a number; the unit % goes unstated.

Enquiry: Fill in the blank: the reported bioavailability of CN(C)c1cc(NC(=O)CNC(C)(C)C)c(O)c2c1C[C@H]1C[C@H]3[C@H](N(C)C)C(O)=C(C(N)=O)C(=O)[C@@]3(O)C(O)=C1C2=O [Tigecycline] is ____.
Return: 15.5

---

# test: Kanamycin and tobramycin plasma PK after IV bolus in dogs
# Assay type: in vivo, Beagle dogs
# measurement-conditions: female, Beagle, dog, plasma, iv, 0.1 mg, single IV bolus 0.10 mg; 0 min; read-out: Plasma Concentration, Mean
measure-name: concentration at 0 min

Enquiry: I'd like to know its concentration at 0 min. The molecule in question is NC[C@H]1O[C@H](O[C@H]2[C@H](O)[C@@H](O[C@H]3O[C@H](CO)[C@@H](O)[C@H](N)[C@H]3O)[C@H](N)C[C@@H]2N)[C@H](O)[C@@H](O)[C@@H]1O
Return: 0 ng/mL

---

# test: Tigecycline plasma PK after IV bolus in anesthetized rats
# Format: in vivo
# measurement-conditions: female, Sprague-Dawley, rat, IV bolus 12 mg/kg, PBS (RA853), 20 min
measure-name: concentration at 20 min (ng/mL)
Report the figure in ng/mL without appending any unit label.

Enquiry: # lookup: concentration at 20 min of CN(C)c1cc(NC(=O)CNC(C)(C)C)c(O)c2c1C[C@H]1C[C@H]3[C@H](N(C)C)C(O)=C(C(N)=O)C(=O)[C@@]3(O)C(O)=C1C2=O [Tigecycline]
Return: 9310

---

# test: Tigecycline plasma PK and % F after intraduodenal (ID) injection in anesthetized rats
# Assay type: in vivo, Sprague-Dawley Rats
# measurement-conditions: female, Sprague-Dawley, rat, plasma, other: intraduodenal bolus injection, 9 mg/kg, pH 3.5, ID, 100 mM CA (pH 3.5), 26 mM LLC, 9.0 mg/kg (RA853); 0 min
measure-name: concentration at 0 min (ng/mL)
The figure you give is taken to be in ng/mL; do not add the unit.

Enquiry: Item under review: CN(C)c1cc(NC(=O)CNC(C)(C)C)c(O)c2c1C[C@H]1C[C@H]3[C@H](N(C)C)C(O)=C(C(N)=O)C(=O)[C@@]3(O)C(O)=C1C2=O [Tigecycline] . Reported concentration at 0 min?
Return: 0
